Hello, the source for this data is the supplement of paper PMC11919725, in case you need it.

- Tested on: Jurkat
- experimental-protocol: cytotoxicity relative to DMSO, 18 h (ratio); higher = less cell death (drugs called cytotoxic fall below 1)
- condition-description: 1 nM
I'd appreciate it if you could supply cytotoxicity values for the items below.

Query: Specify cytotoxicity for `Cc1ncc(-c2ccnc(Nc3ccc(S(C)(=O)=O)cc3)n2)n1C(C)C` and stop.
Response: 0.927

Query: Check the records and state cytotoxicity for `O=C(Nc1cccc(Cl)c1)Nc1ncc(CCNc2ncnc3ccsc23)s1`
Response: 0.951

Query: Identify the reported cytotoxicity for the following entry. `O=C(C=Cc1cccc(S(=O)(=O)Nc2ccccc2)c1)NO`
Response: 1.08

Query: Complete the entry with cytotoxicity for Cc1ncsc1-c1ccc(CNC(=O)C2CC(O)CN2C(=O)C(NC(=O)C2(C#N)CC2)C(C)(C)C)cc1 (centres undefined)
Response: 1
